# SYSTEM: PD-L1 (Homo sapiens (Human), UniProt Q9NZQ7)
# Sequence (Q9NZQ7 19-238): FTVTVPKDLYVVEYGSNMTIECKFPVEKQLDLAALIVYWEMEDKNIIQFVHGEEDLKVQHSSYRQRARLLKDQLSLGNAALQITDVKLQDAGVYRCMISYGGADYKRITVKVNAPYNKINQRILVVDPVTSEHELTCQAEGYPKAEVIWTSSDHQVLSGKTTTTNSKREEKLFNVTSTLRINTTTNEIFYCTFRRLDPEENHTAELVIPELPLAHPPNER
# Sequence (Q9NZQ7 19-238): as above
# METHOD: PD-L1/PD-L1 dimerization biochemical protein-protein interaction assay (ALPHA)
# Assay type: binding
# CONDITION_SET: 0.5 nM His tagged PD-L1 and 0.5 nM FLAG tagged PD-L1, Table 4A, read-out: AC50 PDL1 Dimer 1 nM
ENDPOINT_NAME: AC50 (nM)

MOLECULE | AC50 (nM)
COc1nc(-c2cccc(-c3cccc4c3CC[C@@H]4Nc3nc(OC)c(CNCC(=O)O)cc3C(F)(F)F)c2Cl)ccc1CNC[C@@H]1CCC(=O)N1 [A-65] | 14.7
COc1nc(N[C@H]2CCc3c(-c4cccc(-c5ccc(CNC[C@@H]6CCC(=O)N6)c(OCC#N)n5)c4Cl)cccc32)c(C(F)(F)F)cc1CNC1(C(=O)O)CC1 [A-29] | 5.57
COc1nc(-c2cccc(-c3cccc4c3CC[C@@H]4Nc3nc(OC)c(CNC(C)(C)C(=O)O)cc3C(F)(F)F)c2Cl)ccc1CN[C@H]1C[C@](C)(O)C1 [A-92] | 15.1
CCC1C(C(=O)O)CCN1Cc1cc(C(F)(F)F)c(N[C@H]2CCc3c(-c4cccc(-c5ccc(CNC[C@@H]6CCC(=O)N6)c(OC)n5)c4Cl)cccc32)nc1OC (some centres unmarked) [A-79] | 21.4
COc1nc(-c2cccc(-c3cccc4c3CC[C@@H]4Nc3nc(OC)c(CN4CC5(C(=O)O)CCC4CC5)nc3C(F)(F)F)c2Cl)ccc1CNC[C@H]1CCC(=O)N1 [A-62] | 45.4

[P] COc1nc(-c2cccc(-c3cccc4c3CC[C@@H]4Nc3nc(OC)c(CN4CC(C(=O)O)C4)cc3C(F)(F)F)c2Cl)ccc1CN1CC(C)(O)C1 [A-54]
[Q] COc1nc(-c2cccc(-c3cccc4c3CC[C@@H]4Nc3nc(OC)c(CN[C@@H](C)C(=O)O)cc3C(F)(F)F)c2Cl)ccc1CNC[C@H]1C[C@](C)(O)C1 [A-83]
Enquiry: Hey, between P and Q which has a smaller measured AC50? When you have decided, please share the label of that item.
Return: Q

###

# SYSTEM: PD-L1 (Homo sapiens (Human))
# METHOD: PD-L1/PD-L1 dimerization biochemical protein-protein interaction assay (ALPHA)
# Assay type: binding
# CONDITION_SET: 0.5 nM His tagged PD-L1 and 0.5 nM FLAG tagged PD-L1, Table 4B, read-out: AC50 PDL1 Dimer 1 nM
ENDPOINT_NAME: AC50 (nM)

// worked examples, AC50 included
COMPOUND | SYSTEM | AC50 / nM
COc1nc(-c2cccc(-c3cccc4c3CC[C@@H]4Oc3nc(OC)c(CN4CC5(C(=O)O)CCC4CC5)cc3Cl)c2C)ccc1CNC[C@@H]1CCC(=O)N1 | PD-L1 (Homo sapiens (Human)) | 60.4
COc1nc(-c2cccc(-c3cccc4c3CC[C@@H]4Oc3nc(OC)c(CNC(C)(C)C(=O)O)cc3C)c2Cl)ccc1CNC[C@@H]1CCC(=O)N1 | PD-L1 (Homo sapiens (Human)) | 5.94
CNC(=O)CCNCc1ccc(-c2cccc(-c3cccc4c3CC[C@@H]4Oc3nc(OC)c(CNCCC(=O)NC)cc3Cl)c2Cl)nc1OC | PD-L1 (Homo sapiens (Human)) | 85

[I] COc1nc(-c2cccc(-c3cccc4c3CC[C@@H]4Oc3nc(OC)c(CN4CCN(C)C(C(=O)O)C4)cc3Cl)c2Cl)ccc1CNC[C@@H]1CCC(=O)N1 (stereo partly drawn)
[II] COc1nc(-c2cccc(-c3cccc4c3CC[C@@H]4Oc3nc(OC)c(CN4CC(C(=O)NS(C)(=O)=O)C4)cc3Cl)c2Cl)ccc1CN1CC(C)(O)C1
[III] COc1nc(-c2cccc(-c3cccc4c3CC[C@@H]4Oc3nc(OC)c(CN4CCC[C@H]4C(=O)O)cc3Cl)c2Cl)ccc1CNC[C@@H]1CCC(=O)N1
Enquiry: Rank descending by AC50. Your answer should be the labels, listed in the requested order.
Return: II, I, III
